molecular target: GST-tagged GDP-loaded KRAS G12V (amino acids 1-169) (Homo sapiens, UniProt P01116, G12V); construct: GST-tagged GDP-loaded KRAS G12V (amino acids 1-169); made in house; host or cells: E. coli; test: KRAS G12V probe displacement assay (TR-FRET); assay type: binding; settings: displacement of biotinylated probe 2 from GDP-loaded KRAS G12V
Sequence (P01116 1-169 isoform P01116-2 G12V): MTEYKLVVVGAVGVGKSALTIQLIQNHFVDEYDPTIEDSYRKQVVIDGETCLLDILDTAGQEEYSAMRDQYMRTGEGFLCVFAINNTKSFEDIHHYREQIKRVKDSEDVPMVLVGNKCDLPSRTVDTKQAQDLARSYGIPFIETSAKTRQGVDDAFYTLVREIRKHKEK
pIC50: −log10 of the molar value.
# pIC50 >= 8 gives MET, anything below gives NOT MET

Here's what some known entries look like.
{"columns": ["COMPOUND", "DISCRETE_LABEL"],
 "data": [
  ["CC1C(O)CN1c1nc(OC[C@@]23CCCN2C[C@H](F)C3)nc2c(F)c(-c3ccc(F)c4sc(N)nc34)c(C(F)(F)F)cc12 (stereo partly drawn)", "MET"],
  ["Nc1nc2c(-c3c(C(F)(F)F)cc4c(N5CC[C@@H]5CO)nc(OC[C@@]56CCCN5C[C@H](F)C6)nc4c3F)ccc(F)c2s1", "MET"],
  ["Cc1cc(N)nc(-c2c(Cl)cc3c(N4CCOC[C@@H]4C)nc(OC[C@@]45CCCN4C[C@H](F)C5)nc3c2F)c1C(F)(F)F", "NOT MET"]
]}

Req: Check the entry Nc1cc(Cl)c(C(F)(F)F)c(-c2ncc3c(N4CCC5CC5(O)C4)nc(OC[C@@]45CCCN4C[C@H](F)C5)nc3c2F)c1 (stereo partly drawn) : does pIC50 equal or exceed 8?
Resp: NOT MET

Req: Could you verify whether the entry `CC(=O)N1C[C@@H]2[C@H](C1)[C@H]2Nc1nc(OC[C@@]23CCCN2C[C@H](F)C3)nc2c(F)c(-c3ccc(F)c4sc(N)nc34)c(Cl)cc12` shows pIC50 of no less than 8?
Resp: MET

Req: In plain terms: is recorded pIC50 at least 8 for `Nc1nc2c(-c3c(C(F)(F)F)cc4c(NC5CC(F)(F)C5)nc(OC[C@@]56CCCN5C[C@H](F)C6)nc4c3F)ccc(F)c2s1` ?
Resp: NOT MET

Values compiled from patent US20250101028A1.
